sensor-assay potency score (higher = more potent) listing for selected sequences.
target: CHID1; assay: pooled miR-30 sensor sort-seq; sequence = guide strand; conditions: shRNA; further: reference of the scale not given here
recordedEndpoint: sensor-assay potency score (higher = more potent)

| primarySequence | testedSystem | reportedValue |
| --- | --- | --- |
| TTCAGTGTCTGGATGTACCTGG | CHID1 | 0.597 |
| TGAAAACTGACTCTTCTCCAGC | CHID1 | -0.645 |
| TATCTCATCCTCACTGTCTAAG | CHID1 | -0.858 |
| TTTGAGGTCCGTCACCACCAAA | CHID1 | -1.77 |
| TAGTCCATACCATAGAAGTTGA | CHID1 | -1.13 |
| TTTGCCGAGCAGTAGCTGCGAT | CHID1 | -0.629 |
| TCACTGTCTAAGACGTTCCGGA | CHID1 | -0.147 |
